# tgt: T1, Ku (Mycobacterium smegmatis, UniProt A0R3S7 1-318)
# T1 sequence: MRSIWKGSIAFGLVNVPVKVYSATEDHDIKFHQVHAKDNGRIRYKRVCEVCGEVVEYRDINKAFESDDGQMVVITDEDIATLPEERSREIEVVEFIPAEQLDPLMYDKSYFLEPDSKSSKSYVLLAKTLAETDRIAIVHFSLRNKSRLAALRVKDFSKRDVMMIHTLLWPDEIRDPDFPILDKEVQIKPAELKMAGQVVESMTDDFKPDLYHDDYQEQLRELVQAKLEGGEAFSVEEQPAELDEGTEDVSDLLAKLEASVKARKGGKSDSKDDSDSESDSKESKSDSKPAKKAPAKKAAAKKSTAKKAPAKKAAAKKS
# assaySummary: EMSA
endpointLabel: Kd (nM)
Numeric only. Scale: nM

Exam item: Which Kd is reported for this binder? 37 bp DNA (dsDNA) DNA 1: CCTAGGCTACACCTACTCTTTGTAAGAATTAAGCTTC DNA 2: GAAGCTTAATTCTTACAAAGAGTAGGTGTAGCCTAGG
Marked response: 8.6
